- subject-of-test: Transcription factor AP1 (Homo sapiens, UniProt P01100+P05412)
- Sequence (P05412 whole entry): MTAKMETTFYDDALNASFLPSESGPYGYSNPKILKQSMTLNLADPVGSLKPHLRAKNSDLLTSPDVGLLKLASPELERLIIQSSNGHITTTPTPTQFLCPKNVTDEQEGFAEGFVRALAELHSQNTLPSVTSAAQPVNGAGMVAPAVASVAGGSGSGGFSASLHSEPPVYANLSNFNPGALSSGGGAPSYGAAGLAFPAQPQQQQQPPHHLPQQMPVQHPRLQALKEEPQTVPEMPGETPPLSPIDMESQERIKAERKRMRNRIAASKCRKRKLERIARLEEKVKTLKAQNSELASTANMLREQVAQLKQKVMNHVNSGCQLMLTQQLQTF
- Sequence (P01100 whole entry): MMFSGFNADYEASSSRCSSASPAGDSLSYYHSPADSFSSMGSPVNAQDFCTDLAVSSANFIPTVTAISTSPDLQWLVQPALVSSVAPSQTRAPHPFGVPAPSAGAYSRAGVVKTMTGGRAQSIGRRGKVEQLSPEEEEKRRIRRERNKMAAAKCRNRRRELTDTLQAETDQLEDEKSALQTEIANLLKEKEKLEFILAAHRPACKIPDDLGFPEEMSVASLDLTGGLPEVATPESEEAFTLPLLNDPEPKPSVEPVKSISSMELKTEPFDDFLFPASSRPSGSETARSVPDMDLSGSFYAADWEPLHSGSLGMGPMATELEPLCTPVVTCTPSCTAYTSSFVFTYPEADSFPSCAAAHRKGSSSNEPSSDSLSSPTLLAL
- assay-comment: Inhibitory activity against transcription activator protein-1 (AP-1)
Residues, ends and D or L forms follow the SMILES beside them.
reported-metric: IC50

Some compounds with recorded IC50:
CC(C)C[C@H](NC(=O)[C@H](C)NC(=O)CN)C(=O)N[C@@H](CC(=O)O)C(=O)N[C@@H](CC(C)C)C(=O)N[C@@H](C)C(=O)N[C@@H](CC(=O)O)C(=O)NCC(=O)O (H-GALDLADG-OH) ... > 100 µM
CC(C)C[C@H](NC(=O)[C@H](CCC(N)=O)NC(=O)CN)C(=O)N[C@@H](CC(=O)O)C(=O)N[C@@H](C)C(=O)N[C@@H](C)C(=O)N[C@@H](CC(=O)O)C(=O)NCC(=O)O (H-GQLDAADG-OH) ... > 100 µM

# IC50 lookup, item CC(C)C[C@H](NC(=O)[C@H](CC(=O)O)NC(=O)[C@H](CC(C)C)NC(=O)[C@H](CCC(N)=O)NC(=O)CN)C(=O)N[C@@H](C)C(=O)N[C@@H](CC(=O)O)C(=O)O (H-GQLDLAD-OH) > 100 µM

Endpoint output: IC50 of CC(C)C[C@H](NC(=O)[C@H](C)NC(=O)[C@H](CC(C)C)NC(=O)[C@H](CCC(N)=O)NC(=O)CN)C(=O)N[C@@H](C)C(=O)N[C@@H](CC(=O)O)C(=O)NCC(=O)O (H-GQLALADG-OH) . Value? > 200 µM

Looking for the measured IC50 of CC(C)C[C@H](NC(=O)[C@H](CC(=O)O)NC(=O)[C@H](C)NC(=O)[C@H](CCC(N)=O)NC(=O)CN)C(=O)N[C@@H](C)C(=O)N[C@@H](CC(=O)O)C(=O)NCC(=O)O (H-GQADLADG-OH) , can you help? > 100 µM

Query: IC50; subject: CC(C)C[C@H](NC(=O)[C@H](CC(=O)O)NC(=O)[C@H](CC1CCCCC1)NC(=O)[C@H](CCC(N)=O)NC(=O)CN)C(=O)N[C@@H](C)C(=O)N[C@@H](CC(=O)O)C(=O)NCC(=O)O (HELM PEPTIDE1{G.Q.[Cha].D.L.A.D.G}$$$$V2.0) > 100 µM

Would you mind telling me what IC50 value was observed for CC(C)C[C@H](NC(=O)[C@H](CC(=O)O)NC(=O)[C@H](CC(C)C)NC(=O)[C@H](CCC(N)=O)NC(=O)CN)C(=O)N[C@@H](C)C(=O)N[C@@H](CC(N)=O)C(=O)NCC(=O)O (H-GQLDLANG-OH) ? 52 µM

# query: IC50 of entry CC(C)C[C@H](NC(=O)[C@H](CC(=O)O)NC(=O)[C@H](CC(C)C)NC(=O)[C@H](CCC(N)=O)NC(=O)CN)C(=O)N[C@@H](C)C(=O)N[C@@H](CC(=O)O)C(=O)NCC(=O)O (H-GQLDLADG-OH) 8 µM

Quick one: IC50 for CC(C)C[C@H](NC(=O)[C@H](CC(=O)O)NC(=O)[C@H](CC(C)C)NC(=O)[C@@H](N)CCC(N)=O)C(=O)N[C@@H](C)C(=O)N[C@@H](CC(=O)O)C(=O)NCC(=O)O (H-QLDLADG-OH) ? > 100 µM
